System: MDA-MB-361
Experiment: cells
Assay type: functional, cell-based, Homo sapiens
Conditions: Homo sapiens, MDA-MB-361
Where a name gives a salt, the structure may show the parent alone.
measurement label: pIC50
One number for each entry, as −log10 of the molar value.

Reference set, count: 2
molecule	pIC50
COC1=CC(c2cc3ccccc3[nH]2)=N/C1=C\c1[nH]c(C)cc1C [OBATOCLAX MESYLATE]	6.00
CC(C)c1ccccc1Cc1cc(C(=O)Nc2ccc(S(=O)(=O)c3ccccc3C(C)(C)C)cc2)c(O)c(O)c1O	6.65

Look up and report measured pIC50 (MDA-MB-361) for the following molecule: N#Cc1c(O)c2c(-c3ccc(-c4ccccc4O)cc3)csc2[nH]c1=O
6.07

----------
Tested on: SW837;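 further: growth inhibition of SW837 cells, determined with a cell viability assay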
Assay: cells
Type: functional, cell-based, Homo sapiens
Details: Homo sapiens, SW837
Description: SANGER: Inhibition of human SW837 cell growth in a cell viability assay.
pIC50: −log10 of the molar value.
measurement label: pIC50

Known results for compounds:
COc1cc2c(Nc3ccc(NC(=O)c4ccccc4)cc3)ncnc2cc1OCCCN1CCOCC1 < 5.40
CO[C@H]1C[C@@H]2CC[C@@H](C)[C@@](O)(O2)C(=O)C(=O)N2CCCC[C@H]2C(=O)O[C@H]([C@H](C)C[C@@H]2CC[C@@H](OC(=O)C(C)(CO)CO)[C@H](OC)C2)CC(=O)[C@H](C)/C=C(\C)[C@@H](O)[C@@H](OC)C(=O)[C@H](C)C[C@H](C)/C=C/C=C/C=C/1C < 6.70
CCC/C=C/C=C/C(=O)O[C@H]1/C(=C/C(=O)OC)C[C@H]2C[C@H]([C@@H](C)O)OC(=O)C[C@H](O)C[C@@H]3C[C@H](OC(C)=O)C(C)(C)[C@](O)(C[C@@H]4C/C(=C/C(=O)OC)C[C@H](/C=C/C(C)(C)[C@]1(O)O2)O4)O3 < 8.10

State measured pIC50 of the compound CCN(CC)CCCCNc1ncc2cc(-c3cc(OC)cc(OC)c3)c(NC(=O)NC(C)(C)C)nc2n1 with SW837.
< 5.70

----------
Tested on: MOLT-4;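 further: growth inhibition of MOLT-4 cells, determined with a cell viability readout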
Assay: cells
Format: functional, cell-based, Homo sapiens
Settings: Homo sapiens, MOLT-4
Description: SANGER: Inhibition of human MOLT-4 cell growth in a cell viability assay.
Counter-ions that a name gives are not always drawn.
measurement label: pIC50
One number for each entry, as −log10 of the molar value.

molecule	recorded measurement
CCN(CC)CCNC(=O)c1c(C)[nH]c(/C=C2\C(=O)Nc3ccc(F)cc32)c1C	5.47
CO[C@H]1C[C@@H]2CC[C@@H](C)[C@@](O)(O2)C(=O)C(=O)N2CCCC[C@H]2C(=O)O[C@H]([C@H](C)C[C@@H]2CC[C@@H](OC(=O)C(C)(CO)CO)[C@H](OC)C2)CC(=O)[C@H](C)/C=C(\C)[C@@H](O)[C@@H](OC)C(=O)[C@H](C)C[C@H](C)/C=C/C=C/C=C/1C	8.37

The record that follows has no pIC50 shown yet.
Dear colleague, please send me the reported pIC50 for COC1=CC(c2cc3ccccc3[nH]2)=N/C1=C\c1[nH]c(C)cc1C [OBATOCLAX MESYLATE] when you can.
6.32

----------
System: NKM-1;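 further: growth inhibition of NKM-1 cells, read out with a cell viability assay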
Assay: cells
Assay type: functional, cell-based, Homo sapiens
Conditions: Homo sapiens, NKM-1
Description: SANGER: Inhibition of human NKM-1 cell growth in a cell viability assay.
Assign pIC50 to each entry below.
One number for each entry, as −log10 of the molar value.

molecule	measurement label	recorded measurement
O=C(O)c1ccc(-c2c[nH]c3ncc(-c4ccccc4)cc23)cc1C1CCCC1 [GSK-650394]	pIC50	5.56
COc1cc2ncn(-c3cc(OCc4ccccc4C(F)(F)F)c(C(N)=O)s3)c2cc1OC [GW843682X]	pIC50	6.86
COc1cc2c(Nc3ccc(NC(=O)c4ccccc4)cc3)ncnc2cc1OCCCN1CCOCC1	pIC50	5.93

Now let's try a different one.
Could you please provide reported pIC50 for Cc1cn(-c2cc(NC(=O)c3ccc(C)c(Nc4nccc(-c5cccnc5)n4)c3)cc(C(F)(F)F)c2)cn1 [NILOTINIB] ? Thanks!
6.05

// provenance: ChEMBL document CHEMBL1201861
